The reported numbers originate from ChEMBL document CHEMBL1201862.

Target under test: UniProtKB P24666
Sequence (P24666 whole entry): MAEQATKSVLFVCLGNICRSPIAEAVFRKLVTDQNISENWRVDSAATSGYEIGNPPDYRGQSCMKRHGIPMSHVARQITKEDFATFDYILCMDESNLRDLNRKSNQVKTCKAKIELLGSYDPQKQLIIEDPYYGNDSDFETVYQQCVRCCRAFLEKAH
Type: functional
Conditions: read-out: IC50_Mean;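 note: Dose-response confirmation assay measuring inhibition of LMPTP enzyme activity by fluorescence intensity read-out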
The source made the active and inactive calls. Cut-off read from the data, not from the text of the source: active = IC50 of 20 µM or less and inactive = more.
# valid calls are yes (1) for active, no (0) for inactive; nothing else

Molecule	Class label
COC(=O)COc1ccc2oc(=O)cc(-c3cc4cccc(OC)c4o3)c2c1	yes (1)
O=C(N/N=C/C=C/c1ccccc1)c1cc2c(ccc3ccccc32)o1	yes (1)
COc1ccc(CCn2c(=N)c(C(=O)NCc3ccco3)cc3c(=O)n4ccccc4nc32)cc1	no (0)
O=C(OCCNc1nc(-c2ccccc2)nc2ccccc12)c1ccncc1	yes (1)

Lab note: next molecule to report on.
Recorded test call requested for CC(C1SC(=S)NC1=O)C1SC(=S)NC1=O (stereo not given) no (0)
